Value source: ChEMBL document CHEMBL3244341

Consider the following molecules; for each one, report its inhibition in vivo at 50 mg/kg.
test system: Rattus norvegicus; assay: Antiinflammatory activity in rat assessed as reduction in carrageenan-induced foot edema at 50 mg/kg, po relative to phenylbutazone-treated control; assay type: functional
Remember to follow the number with its unit.

Record CC(C(=O)O)c1cccc2c(-c3ccc(Cl)cc3)noc12 (centres undefined) . Reported inhibition in vivo at 50 mg/kg: 48%

Record `O=C(O)Cc1cccc2c(-c3ccc(Cl)cc3)noc12` . Reported inhibition in vivo at 50 mg/kg: 49%

Record CC(C(=O)O)c1ccc2c(-c3ccc(F)cc3)noc2c1 (centres undefined) . Reported inhibition in vivo at 50 mg/kg: 57%

Record CC(C(=O)O)c1cccc2c(-c3ccccc3)noc12 (centres undefined) . Reported inhibition in vivo at 50 mg/kg: 32%

====

system: Rattus norvegicus; test: Antiinflammatory activity in rat assessed as reduction in carrageenan-induced foot edema at 50 mg/kg, po; type: functional
METRIC: inhibition in vivo at 50 mg/kg (%)
Field format: number, assumed %, no unit text.

Measured on Rattus norvegicus, CC(C(=O)O)c1ccc2onc(-c3ccc(Cl)cc3)c2c1 (stereo not given) has a documented inhibition in vivo at 50 mg/kg of 18

Measured on Rattus norvegicus, `O=C(O)Cc1cccc2c(-c3ccc(Cl)cc3)noc12` has a documented inhibition in vivo at 50 mg/kg of 36

Measured on Rattus norvegicus, CC(C(=O)O)c1ccc2c(-c3ccc(F)cc3)noc2c1 (stereo not given) has a documented inhibition in vivo at 50 mg/kg of 37

Measured on Rattus norvegicus, CC(C(=O)O)c1cccc2c(-c3ccccc3)noc12 (stereo not given) has a documented inhibition in vivo at 50 mg/kg of 42

Measured on Rattus norvegicus, CC(C(=O)O)c1ccc2c(-c3ccc(Cl)cc3)noc2c1 (stereo not given) has a documented inhibition in vivo at 50 mg/kg of 46

====

assay: Toxicity in po dosed mouse; assay type: organism-based; conditions: in vivo
Consider the following compounds; for each one, report its LD50.
Field format: number, assumed mg/kg, no unit text.

Record CC(C(=O)O)c1ccc2c(-c3ccc(Cl)cc3)noc2c1 (stereo not drawn) . Reported LD50: 600

Record `O=C(O)Cc1cccc2c(-c3ccc(Cl)cc3)noc12` . Reported LD50: 600

Record `O=C(O)Cc1ccc2onc(-c3ccc(Cl)cc3)c2c1` . Reported LD50: 600
